Data provenance is PubChem BioAssay.

target: NADPH oxidase 2 (Homo sapiens) (UniProt P04839); assay: NOX2-dependent H2O2 signal modulators, primary screen, NOX inhibitor project, cell-based, HEK293-NOX2, PMA-stimulated, Amplex Red fluorescence (AID 1159); settings: 45 min, called active from +8 up or from −8 down; also: test concentration not given here
Sequence (P04839 whole entry, looked up): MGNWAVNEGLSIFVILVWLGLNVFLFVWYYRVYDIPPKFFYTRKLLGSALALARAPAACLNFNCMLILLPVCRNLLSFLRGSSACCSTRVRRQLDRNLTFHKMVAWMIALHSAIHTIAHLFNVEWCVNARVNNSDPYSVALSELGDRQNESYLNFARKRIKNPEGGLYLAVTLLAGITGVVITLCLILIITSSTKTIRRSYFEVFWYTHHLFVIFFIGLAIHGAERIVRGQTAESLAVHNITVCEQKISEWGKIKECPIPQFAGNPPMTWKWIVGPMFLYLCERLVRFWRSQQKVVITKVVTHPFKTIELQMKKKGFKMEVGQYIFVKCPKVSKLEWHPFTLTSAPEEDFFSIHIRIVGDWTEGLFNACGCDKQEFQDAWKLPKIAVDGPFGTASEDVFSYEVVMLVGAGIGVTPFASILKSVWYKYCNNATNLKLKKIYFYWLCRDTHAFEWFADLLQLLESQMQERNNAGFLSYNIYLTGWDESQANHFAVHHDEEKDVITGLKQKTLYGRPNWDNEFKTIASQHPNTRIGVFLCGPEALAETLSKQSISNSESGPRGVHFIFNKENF
Active and inactive are the calls of the source.
The categories you may choose from are active, inactive

compound="COc1ccc(NN2C(C(O)c3ccc(OC)cc3)C=CC3C(=O)N(C4CCCCC4)C(=O)C32)cc1 (stereo not drawn)" target_or_system="NADPH oxidase 2 (Homo sapiens) (UniProt P04839)" qualitative_label=inactive
compound=COC(=O)[C@]1(CO)N=C(c2ccc(OCCCO)cc2)O[C@@H]1c1ccccc1CN=[N+]=[N-] target_or_system="NADPH oxidase 2 (Homo sapiens) (UniProt P04839)" qualitative_label=inactive
compound=C=CCNC(=O)[C@H]1[C@@H]2C(=O)O[C@@H](c3ccccc3)[C@@H](c3ccccc3)N2[C@@H](c2ccc(O)cc2)[C@]12C(=O)Nc1ccc(C#CC3=CCCCC3)cc12 target_or_system="NADPH oxidase 2 (Homo sapiens) (UniProt P04839)" qualitative_label=inactive
compound="CCCCC(O)C1C=CC2C(=O)NC(=O)C2N1Nc1ccccn1 (stereo not drawn)" target_or_system="NADPH oxidase 2 (Homo sapiens) (UniProt P04839)" qualitative_label=inactive
compound="CCCCN1CC=CC23O[C@@H]4C=CCOC(=O)[C@@H]4[C@H]2C(=O)N(CCO)[C@@H]3C1=O (stereo partly drawn)" target_or_system="NADPH oxidase 2 (Homo sapiens) (UniProt P04839)" qualitative_label=inactive

Query: Which outcome was assigned to CCC(CC)C(O)C1C=CC2C(=O)N(C)C(=O)C2N1N1CCCCC1 (stereo not drawn) in this test?
Result: inactive

Query: Hi, sorry to bother you, what did the test record for CC1CC/C=C\[C@H]2OC34C=CCN(CCN5CCOCC5)C(=O)[C@H]3N(CCCCCCO)C(=O)[C@@H]4C2C(=O)O1 (stereo partly drawn) ?
Result: inactive

Query: // param item: "COc1ccccc1CN1C(=O)c2ccccc2[C@](Cc2ccccc2I)(C(=O)NCCCN(C)C)[C@@H]1c1ccc(CO)cc1" ; yields the recorded call
Result: active

----------
assay: S. cerevisiae RM11-1a growth modifiers, primary screen, strain RM11-1a, OD600, basal, 24 h (AID 1177); details: OD600, 24 h, higher = more signal, called active from +8 up or from −8 down;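 also: cultures grown under basal conditions with no added stressor; test concentration not given here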
Binary classification by z-score, with -0.1 as an inclusive lower bound for satisfied; all other cases are not satisfied.

Observe how each entry below is paired with its result.
compound="C=CCC(OC(C)=O)[C@@H]1[C@@H](N(Cc2cccc3ccccc23)C(=O)c2ccc(-c3ccccc3)cc2)c2cc(OCCCO)ccc2N1C(=O)c1ccc2ccccc2n1 (stereo not given in full)" qualitative_label="not satisfied"
compound="CC(C)c1ccc(NN2C(C(O)C(C)C)C=CC3C(=O)N(c4ccccc4)C(=O)C32)cc1 (stereo not given)" qualitative_label=satisfied
compound=CCCC=C(CCC)[C@@H](NC(=O)c1ccco1)c1ccc(C(=O)OC)cc1 qualitative_label=satisfied
compound=COC(=O)[C@@]1(Cc2ccc(F)cc2)[C@H]2c3cc(C(=O)N(C)C)n(CCO)c3C[C@H]2CN1C(=O)c1ccccc1 qualitative_label="not satisfied"
compound=CC(C)CNC(=O)[C@@H]1c2ccccc2C(=O)N(C(C)C)[C@H]1c1ccc(CO)cc1 qualitative_label="not satisfied"

Query: Identify whether the reported z-score of the following compound is -0.1 or greater: "C#CCN([C@H](/C=C/C1CC1)[C@@H](O)Cc1ccccc1)[C@@H](Cc1ccccc1)C(=O)OC"
Result: satisfied

Query: Item CC(C)C[C@@H]1NC(=O)C([C@@H](C)OCc2ccccc2)NC(=O)[C@@]23C(=O)N[C@@H](Cc4ccccc4)C2[C@H](C)[C@@]2(C)O[C@H]2C3/C=C/CC/C=C/CNC1=O (stereo not given in full) with z-score of -0.1 or above?
Result: not satisfied
